Form field: MIC (one value per entry).
System: Pseudomonas aeruginosa
Assay: Antibacterial activity against Pseudomonas aeruginosa PAO1 by agar dilution method
Format: functional
Where a SMILES comes first, the peptide text is derived from it. Bridges are numbered along the chain shown (N, C = ends). [ ]: non-standard residue; d: D form. The star is where a group is joined. Octanoyl = CCCCCCCC(=O)*; Dab = NCC[C@H](N)C(=O)O
measuredParameter: MIC

* CCCCCCCC(=O)N[C@@H](CCN)C(=O)N[C@H](C(=O)N[C@@H](CCN)C(=O)N[C@H]1CCNC(=O)[C@H]([C@@H](C)O)NC(=O)[C@H](CCN)NC(=O)[C@H](CCN)NC(=O)[C@H](CC(C)C)NC(=O)[C@@H](CC(C)C)NC(=O)[C@H](CCN(C)C)NC1=O)[C@@H](C)O | > 16 µg/mL
* C[C@@H](O)[C@@H]1NC(=O)[C@H](CCN)NC(=O)[C@H](CCN)NC(=O)[C@H](Cc2ccc(-c3ccccc3)cc2)NC(=O)[C@@H](Cc2ccccc2)NC(=O)[C@H](CCN)NC(=O)[C@@H](NC(=O)[C@H](CCN)NC(=O)[C@@H](NC(=O)[C@H](CCN)NC(=O)c2ccccc2)[C@@H](C)O)CCNC1=O | 8 µg/mL
* CCCCCCCC(=O)N[C@@H](CCN)C(=O)N[C@H](C(=O)N[C@@H](CCN)C(=O)N[C@H]1CCNC(=O)[C@H]([C@@H](C)O)NC(=O)[C@H](CCN)NC(=O)[C@H](CCN)NC(=O)[C@H](CC(C)C)NC(=O)[C@@H](CC(C)C)NC(=O)[C@H](CCN)NC1=O)[C@@H](C)O (Octanoyl-[Dab]T[Dab][Dab][Dab][dL]L[Dab][Dab]T; lactam 4-C) | 8 µg/mL
* CCCCCCCCC(CCCCCC)C(=O)N[C@@H](CCN)C(=O)N[C@H](C(=O)N[C@@H](CCN)C(=O)N[C@H]1CCNC(=O)[C@H]([C@@H](C)O)NC(=O)[C@H](CCN)NC(=O)[C@H](CCN)NC(=O)[C@H](CC(C)C)NC(=O)[C@@H](CC(C)C)NC(=O)[C@H](CCN)NC1=O)[C@@H](C)O (some centres not stated) | > 16 µg/mL
* CCCCCCCC(=O)N[C@@H](CCN)C(=O)N[C@H](C(=O)N[C@@H](CCN)C(=O)N[C@H]1CCNC(=O)[C@H]([C@@H](C)O)NC(=O)[C@H](CCN)NC(=O)[C@H](CCN(C)C)NC(=O)[C@H](CC(C)C)NC(=O)[C@@H](CC(C)C)NC(=O)[C@H](CCN)NC1=O)[C@@H](C)O | 4 µg/mL
* C[C@@H](O)[C@@H]1NC(=O)[C@H](CCN)NC(=O)[C@H](CCN)NC(=O)[C@H](Cc2ccc(-c3ccccc3)cc2)NC(=O)[C@@H](Cc2ccccc2)NC(=O)[C@H](CCN)NC(=O)[C@@H](NC(=O)[C@H](CCN)NC(=O)[C@@H](NC(=O)[C@H](CCN)NC(=O)c2cccc(-c3ccccc3)c2)[C@@H](C)O)CCNC1=O | 16 µg/mL
* CCCCCCCCC(CCCCCCCC)C(=O)N[C@@H](CCN)C(=O)N[C@H](C(=O)N[C@@H](CCN)C(=O)N[C@H]1CCNC(=O)[C@H]([C@@H](C)O)NC(=O)[C@H](CCN)NC(=O)[C@H](CCN)NC(=O)[C@H](CC(C)C)NC(=O)[C@@H](CC(C)C)NC(=O)[C@H](CCN)NC1=O)[C@@H](C)O | > 16 µg/mL
